Just for reference, ChEMBL document CHEMBL1122469 is where these values come from.

target: Adrenergic receptor beta (Homo sapiens, UniProt P08588+P07550+P13945); assay: Beta adrenergic receptor agonist activity in guinea pig, isolated, spontaneously beating, right atrial preparation; assay type: functional, tissue-based; conditions: Cavia porcellus; Cardiac atrium; target entry is the homologue from another species
value-type: Intrinsic activity

Completed entries (count: 2):
[[record]]
compound = "CC(C)(C)NCC1NCCc2cc(O)c(O)cc21 (centres undefined)"
meas_value = 0.14

[[record]]
compound = "Oc1ccc(CC2NCCc3cc(O)c(O)cc32)cc1O (centres undefined)"
meas_value = 0.94


1 = NCC1NCCc2cc(O)c(O)cc21 (centres undefined)
2 = CC(C)NCC1NCCc2cc(O)c(O)cc21 (centres undefined)
Prompt line: Field: lower recorded Intrinsic activity (choose 1 or 2 ) Mark your answer with the label of the selected entry.
Response line: 2

###

target: Adrenergic receptor beta (Homo sapiens, UniProt P08588+P07550+P13945); experiment: Beta adrenergic receptor agonist activity in guinea pig, isolated, spontaneously beating, right atrial preparation; format: functional, tissue-based; settings: Cavia porcellus; Cardiac atrium; target entry is the homologue from another species
value-type: pD2

[[record]]
compound = "Oc1ccc(CC2NCCc3cc(O)c(O)cc32)cc1O (centres undefined)"
meas_value = 6.96

[[record]]
compound = "CC(C)NCC1NCCc2cc(O)c(O)cc21 (centres undefined)"
meas_value = 5.05

[[record]]
compound = "CC(C)(C)NCC1NCCc2cc(O)c(O)cc21 (centres undefined)"
meas_value = 5.1

[[record]]
compound = "NCC1NCCc2cc(O)c(O)cc21 (centres undefined)"
meas_value = 4.49


###

target: Adrenergic receptor beta (Homo sapiens, UniProt P08588+P07550+P13945); experiment: Beta adrenergic receptor agonist activity in reserpine pre-treated guinea pig, isolated, spontaneously beating, right atrial preparation; format: functional, tissue-based; details: Cavia porcellus; Cardiac atrium; target entry is the homologue from another species
value-type: Intrinsic activity

[[record]]
compound = "Oc1ccc(CC2NCCc3cc(O)c(O)cc32)cc1O (centres undefined)"
meas_value = 0.95

[[record]]
compound = "NCC1NCCc2cc(O)c(O)cc21 (centres undefined)"
meas_value = 0.53


A = CC(C)(C)NCC1NCCc2cc(O)c(O)cc21 (centres undefined)
B = CC(C)NCC1NCCc2cc(O)c(O)cc21 (centres undefined)
Prompt line: Field: lower recorded Intrinsic activity (choose A or B ) Mark your answer with the label of the selected entry.
Response line: A
(A: 0.29, B: 0.59)

###

target: Adrenergic receptor beta (Homo sapiens, UniProt P08588+P07550+P13945); test: Beta adrenergic receptor agonist activity in reserpine pre-treated guinea pig, isolated, spontaneously beating, right atrial preparation; assay type: functional, tissue-based; conditions: Cavia porcellus; Cardiac atrium; target entry is the homologue from another species
value-type: pD2

[[record]]
compound = "CC(C)(C)NCC1NCCc2cc(O)c(O)cc21 (centres undefined)"
meas_value = 5.23

[[record]]
compound = "NCC1NCCc2cc(O)c(O)cc21 (centres undefined)"
meas_value = 4.22

[[record]]
compound = "CC(C)NCC1NCCc2cc(O)c(O)cc21 (centres undefined)"
meas_value = 5.18

[[record]]
compound = "Oc1ccc(CC2NCCc3cc(O)c(O)cc32)cc1O (centres undefined)"
meas_value = 7.05

